Target: T1, human calcitonin receptor (human, UniProt P30988 25-474)
T1 sequence (looked up): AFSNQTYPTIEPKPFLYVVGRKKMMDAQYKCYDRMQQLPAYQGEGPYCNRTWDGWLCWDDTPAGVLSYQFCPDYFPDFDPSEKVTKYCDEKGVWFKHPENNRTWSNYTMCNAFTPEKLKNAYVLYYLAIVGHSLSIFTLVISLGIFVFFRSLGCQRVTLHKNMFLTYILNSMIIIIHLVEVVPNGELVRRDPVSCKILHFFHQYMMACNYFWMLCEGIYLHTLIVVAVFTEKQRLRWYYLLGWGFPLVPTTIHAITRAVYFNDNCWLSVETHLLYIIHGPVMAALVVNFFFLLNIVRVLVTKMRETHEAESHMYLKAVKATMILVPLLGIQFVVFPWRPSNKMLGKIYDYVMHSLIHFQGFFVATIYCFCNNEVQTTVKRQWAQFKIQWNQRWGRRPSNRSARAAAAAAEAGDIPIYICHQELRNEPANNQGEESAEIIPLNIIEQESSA
Assay: cell-based or functional assay
Numbered stars: 1 amine (or outer) side, 2 acyl side, 3 side chain; on linkers, the order of the positions; unused ones are H or OH. Bridge positions count the residues as written; N and C are the ends. Side chains are listed from the residue outwards. Ends that are not written are not given here. * marks the point of attachment. C20 diacid = O=C(O)CCCCCCCCCCCCCCCCCCC(=O)*; γGlu = O=C(O)[C@H](CCC(=O)[*:2])N[*:1]
Provide the reported hCTR funct. EC50 (pM) of each item.
Answers are plain numbers, in pM.

binder	unit_abbreviation	hCTR funct. EC50 (pM)
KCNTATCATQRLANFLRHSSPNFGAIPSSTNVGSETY (C20 diacid-gGlu on the alpha amino group of the N-terminal residue (Lys1); disulfide Cys2-Cys7 and C-terminal amide as in human amylin, also called compound 23) [N^α1-[(4S)-4-carboxy-4-(19-carboxynonadecanoylamino)butanoyl]-[Arg17,Pro21,Pro27,Glu35]-h-amylin]	pM	3020
K([γGlu-γGlu-C20 diacid])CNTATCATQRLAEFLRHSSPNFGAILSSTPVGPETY-NH2 (disulfide 2-7 (inferred))	pM	1280
K([γGlu-C20 diacid])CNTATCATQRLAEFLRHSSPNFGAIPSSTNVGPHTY-NH2 (disulfide 2-7)	pM	1450
{C20 diacid-γGlu}-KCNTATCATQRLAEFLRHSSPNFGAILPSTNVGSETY-NH2 (disulfide 2-7, also called compound 33)	pM	528
K([γGlu-γGlu-C20 diacid])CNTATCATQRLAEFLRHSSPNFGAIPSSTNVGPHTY-NH2 (disulfide 2-7 (inferred))	pM	2830

Next, consider the following binder.
Task item: Query (binder): K([γGlu-γGlu-C20 diacid])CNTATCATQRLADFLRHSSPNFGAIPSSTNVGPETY-NH2 (disulfide 2-7) ; field requested: hCTR funct. EC50 (pM)
Reply: 843
